Documented IC50 across a set of compounds
- assaySystem: Adrenergic receptor alpha-2 (Homo sapiens, UniProt P08913+P18825+P18089)
- Sequence (P08913 whole entry): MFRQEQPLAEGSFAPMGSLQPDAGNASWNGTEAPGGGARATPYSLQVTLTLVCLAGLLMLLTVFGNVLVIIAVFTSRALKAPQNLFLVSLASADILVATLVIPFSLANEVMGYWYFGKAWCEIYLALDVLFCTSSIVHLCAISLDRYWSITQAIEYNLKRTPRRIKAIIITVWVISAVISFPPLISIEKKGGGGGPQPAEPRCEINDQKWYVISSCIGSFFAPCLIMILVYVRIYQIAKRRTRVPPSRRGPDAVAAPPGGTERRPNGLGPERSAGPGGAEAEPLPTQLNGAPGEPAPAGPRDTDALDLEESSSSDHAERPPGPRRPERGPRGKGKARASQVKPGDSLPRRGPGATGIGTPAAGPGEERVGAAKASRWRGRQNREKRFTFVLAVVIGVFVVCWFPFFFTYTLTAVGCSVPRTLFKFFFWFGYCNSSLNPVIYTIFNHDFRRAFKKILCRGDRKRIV
- Sequence (P18825 whole entry): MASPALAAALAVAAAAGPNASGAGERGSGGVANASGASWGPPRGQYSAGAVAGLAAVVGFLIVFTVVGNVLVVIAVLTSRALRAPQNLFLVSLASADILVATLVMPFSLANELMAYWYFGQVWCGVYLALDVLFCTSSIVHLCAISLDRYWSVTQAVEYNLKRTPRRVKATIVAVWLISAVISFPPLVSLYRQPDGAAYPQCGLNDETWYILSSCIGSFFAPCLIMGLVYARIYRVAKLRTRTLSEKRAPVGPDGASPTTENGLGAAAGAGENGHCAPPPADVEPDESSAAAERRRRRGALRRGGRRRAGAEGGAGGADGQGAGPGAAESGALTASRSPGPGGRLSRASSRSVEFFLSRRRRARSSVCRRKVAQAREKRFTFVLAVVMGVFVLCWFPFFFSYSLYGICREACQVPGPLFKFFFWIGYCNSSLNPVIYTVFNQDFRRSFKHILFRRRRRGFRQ
- Sequence (P18089 whole entry): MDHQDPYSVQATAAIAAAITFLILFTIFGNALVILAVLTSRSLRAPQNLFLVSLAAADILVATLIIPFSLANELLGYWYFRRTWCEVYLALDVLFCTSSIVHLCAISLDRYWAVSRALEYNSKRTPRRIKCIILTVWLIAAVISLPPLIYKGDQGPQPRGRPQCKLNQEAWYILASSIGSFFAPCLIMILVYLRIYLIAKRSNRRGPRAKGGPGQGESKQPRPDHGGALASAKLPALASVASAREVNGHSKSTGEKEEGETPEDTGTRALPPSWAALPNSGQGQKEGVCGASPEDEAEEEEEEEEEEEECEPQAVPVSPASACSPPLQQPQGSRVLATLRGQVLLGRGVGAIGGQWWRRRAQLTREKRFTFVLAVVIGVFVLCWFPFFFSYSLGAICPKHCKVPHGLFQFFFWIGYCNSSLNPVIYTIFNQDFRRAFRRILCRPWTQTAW
- assayNotes: In vitro ability to inhibit norepinephrine binding to alpha-2 adrenergic receptor of guinea pig vas deferens
- Assay type: tissue-based, Cavia porcellus
- cond: target entry is the homologue from another species

> print(dat)
                                   compound  measuredvalue
1  CO/C(O)=C1\C(C)=NC(C)=C(C(=O)OCCN2CCC(n3c(O)nc4ccccc43)CC2)C1c1cccc([N+](=O)[O-])c1 (configuration not stated)      >> 1e-6 M
2  COC(=O)C1=C(C)NC(C)=C(C(=O)OCCN(C)C[C@H]2COc3ccccc3O2)[C@@H]1c1cccc([N+](=O)[O-])c1.Cl (stereo in doubt; 6b)     > 0.0001 M
3  COC(=O)C1=C(C)NC(C)=C(C(=O)OCCN(C)C[C@H]2COc3ccccc3O2)[C@@H]1c1cccc([N+](=O)[O-])c1.Cl (stereo in doubt; 6a)      >> 1e-6 M
4  CO/C(O)=C1\C(C)=NC(C)=C(C(=O)OCCN(C)CC2COc3ccccc3O2)C1c1cccc([N+](=O)[O-])c1.Cl (configuration not stated)      > 1e-06 M
5  CO/C(O)=C1\C(C)=NC(C)=C(C(=O)OC(C)CN(C)CC2COc3ccccc3O2)C1c1cccc([N+](=O)[O-])c1.Cl (configuration not stated)   >> 0.00001 M
6  CO/C(O)=C1\C(C)=NC(C)=C(C(=O)OCCN(C)CC2COc3ccccc3O2)C1c1ccccc1[N+](=O)[O-] (configuration not stated)      > 1e-06 M

Now for the compound whose IC50 we want.
The reported IC50 of the compound CO/C(O)=C1\C(C)=NC(C)=C(C(=O)OCCN(C)C(c2ccccc2)C2CCCCC2)C1c1cccc([N+](=O)[O-])c1.Cl (configuration not stated) was > 0.0001 M
